Protein target, amino acids: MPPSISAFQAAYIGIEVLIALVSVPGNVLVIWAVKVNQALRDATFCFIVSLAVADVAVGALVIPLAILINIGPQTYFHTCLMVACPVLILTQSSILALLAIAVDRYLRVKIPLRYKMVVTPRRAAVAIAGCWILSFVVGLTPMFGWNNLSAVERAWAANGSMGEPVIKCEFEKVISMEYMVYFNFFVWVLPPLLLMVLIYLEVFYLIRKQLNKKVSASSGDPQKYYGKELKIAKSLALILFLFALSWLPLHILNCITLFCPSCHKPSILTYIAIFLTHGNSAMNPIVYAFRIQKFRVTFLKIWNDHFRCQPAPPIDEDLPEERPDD
experimental.endpoint: pKi
Answer as the number alone; pKi is minus log10 of concentration in mol/L.

Entry "Nc1nc2ccccc2c2cc(-c3ccco3)nn12" : reported pKi = ?
7.46

---

Target: Adenosine receptor A3 (Homo sapiens, UniProt P0DMS8)
Sequence (P0DMS8 whole entry): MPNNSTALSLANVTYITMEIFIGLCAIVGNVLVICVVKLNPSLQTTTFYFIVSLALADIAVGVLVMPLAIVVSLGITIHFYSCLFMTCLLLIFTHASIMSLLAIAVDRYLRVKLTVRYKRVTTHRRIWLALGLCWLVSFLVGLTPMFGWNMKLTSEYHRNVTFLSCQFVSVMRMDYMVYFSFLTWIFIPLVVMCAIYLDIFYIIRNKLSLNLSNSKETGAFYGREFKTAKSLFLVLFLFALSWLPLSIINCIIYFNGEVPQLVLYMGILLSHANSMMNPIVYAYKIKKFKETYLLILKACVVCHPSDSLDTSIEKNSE
pKi: −log10 of the molar value.
Classification field: enter MET for pKi values not below 7, NOT MET for values below it.

Evaluate "O=C(Nc1nc2ccccc2c2cc(-c3ccccc3)nn12)c1ccccc1" : pKi at minimum 7?
NOT MET

Evaluate "Cc1ccc(-c2cc3c4ccccc4nc(O)n3n2)cc1" : pKi at minimum 7?
MET

Evaluate "Nc1ccccc1-c1cc(-c2cccs2)[nH]n1" : pKi at minimum 7?
NOT MET

Evaluate "Oc1nc2ccccc2c2cc(-c3cccs3)nn12" : pKi at minimum 7?
MET

Evaluate "COc1ccc(-c2cc(-c3ccccc3N)n[nH]2)cc1" : pKi at minimum 7?
NOT MET

---

experimental.endpoint: pKi
Answer as the number alone; pKi is minus log10 of concentration in mol/L.

Quick check: pKi on Adenosine receptor A2a (Homo sapiens, UniProt P29274), item "Nc1nc2ccccc2c2cc(-c3ccco3)nn12" ?
7.10

---

Target: Adenosine receptor A3 (Homo sapiens)
Assay: Displacement of [125I]AB-MECA from human adenosine A3 receptor expressed in CHO cells at 1 uM by scintillation counting
Assay type: cell-based
experimental.endpoint: inhibition (%)
Write the value in % as a bare number.

Quick check: inhibition on Adenosine receptor A3 (Homo sapiens), item "Nc1nc2ccccc2c2cc(-c3ccco3)nn12" ?
35

Quick check: inhibition on Adenosine receptor A3 (Homo sapiens), item "Nc1ccccc1-c1cc(-c2ccco2)n[nH]1" ?
1

Quick check: inhibition on Adenosine receptor A3 (Homo sapiens), item "COc1ccc(-c2cc3c4ccccc4nc(N)n3n2)cc1" ?
45

Quick check: inhibition on Adenosine receptor A3 (Homo sapiens), item "O=C(NCc1ccccc1)c1cc2c3ccccc3[nH]c(=O)n2n1" ?
25

Quick check: inhibition on Adenosine receptor A3 (Homo sapiens), item "Oc1nc2ccccc2c2cc(-c3ccccc3)nn12" ?
28

Quick check: inhibition on Adenosine receptor A3 (Homo sapiens), item "Nc1nc2ccccc2c2cc(-c3ccccc3)nn12" ?
15

Quick check: inhibition on Adenosine receptor A3 (Homo sapiens), item "CCOC(=O)c1ccccc1-c1cc(-c2cccs2)n[nH]1" ?
23

Quick check: inhibition on Adenosine receptor A3 (Homo sapiens), item "Oc1ccccc1-c1n[nH]c(-c2ccccc2)n1" ?
39

Quick check: inhibition on Adenosine receptor A3 (Homo sapiens), item "O=C(OCc1ccccc1)c1cc2c3ccccc3[nH]c(=O)n2n1" ?
1

Quick check: inhibition on Adenosine receptor A3 (Homo sapiens), item "Oc1ccccc1-c1cc(-c2ccccc2)[nH]n1" ?
7

Quick check: inhibition on Adenosine receptor A3 (Homo sapiens), item "Nc1nc2ccccc2c2cc(-c3cccs3)nn12" ?
18

Recorded values, source ChEMBL document CHEMBL2311495.
